tested on: Malme-3M; experiment: NCI tumour cell line growth inhibition, 48 h
Active and inactive are the calls of the source. No stated cut-off is given here; in the data, active = GI50 up to about 1.1 µM and inactive = higher.
endpoint_name: GI50

# annotated cases, reported GI50 shown
[
  {
    "compound": "CN1CNc2nc(N)n(C)c(=O)c2C1",
    "assay_target": "Malme-3M",
    "GI50": "> 10 µM (inactive)"
  },
  {
    "compound": "O=C(Nc1nc2ccc([N+](=O)[O-])cc2[n+]([O-])n1)C(F)(F)F",
    "assay_target": "Malme-3M",
    "GI50": "8.02 µM (inactive)"
  },
  {
    "compound": "S=P(N1CC1)(N1CC1)N1CC1 [THIOTEPA]",
    "assay_target": "Malme-3M",
    "GI50": "141 µM (inactive)"
  }
]

Under Malme-3M: GI50 value of Cc1cc(C)c(S(=O)(=O)N[C@@H](/C=C(\Br)CO)C(C)C)c(C)c1 ?
21.5 µM (inactive)

Provide value of GI50 for this record tested with Malme-3M: Cc1ccc(CC[PH](=O)CCc2ccc(C)nc2)cn1
> 100 µM (inactive)

Lab note: need GI50 with Malme-3M for entry COc1nc(N)c(C#N)c(C#N)c1C#N , please look it up.
> 10 µM (inactive)

// fetch Malme-3M GI50 for N#Cc1nc(Sc2cnsn2)c(Sc2cnsn2)nc1C#N
4.81 µM (inactive)

What GI50 appears in the records for this compound with Malme-3M? COC(=O)C1=C(c2ccc(OC)c(OC)c2)OC(c2ccc(OC)c(OC)c2)C1 (centres undefined)
30 µM (inactive)

Request - read-out GI50 | tested on Malme-3M | compound CCCCCCCCCCCCCCCCCc1nnc(N)o1
> 100 µM (inactive)

====

test system: SF-295; assay: NCI tumour cell line growth inhibition, 48 h
Calls of active or inactive are those of the source. No stated cut-off is given here; in the data, active = GI50 up to about 1.1 µM and inactive = higher.
endpoint_name: GI50

Given O=c1[nH]c(=S)c2cc3c(=S)[nH]c(=O)n(CCC(c4ccccc4)(c4ccccc4)c4ccccc4)c3nc2n1CCC(c1ccccc1)(c1ccccc1)c1ccccc1 , state its recorded GI50.
> 100 µM (inactive)

====

test system: HT-29; experiment: NCI tumour cell line growth inhibition, 48 h
Active and inactive are the calls of the source. Rule as the data show it: active = GI50 up to about 1.1 µM and inactive = higher.
Select the correct class. Options are active, inactive and nothing else.

[
  {
    "compound": "COc1cc(-c2ccc(/N=N/c3c(S(=O)(=O)O)cc4cc(S(=O)(=O)O)cc(N)c4c3O)c(OC)c2)ccc1/N=N/c1c(S(=O)(=O)O)cc2cc(S(=O)(=O)O)cc(N)c2c1O",
    "class_name": "inactive"
  },
  {
    "compound": "COc1ccc(-c2cc(=O)c3c(O)c(OC)c(O)c(OC)c3o2)cc1OC",
    "class_name": "inactive"
  },
  {
    "compound": "CCc1cc2c(oc3c4ccccc4ccc23)c(=O)[nH]1",
    "class_name": "inactive"
  },
  {
    "compound": "Cc1ccccc1-n1c(C)nc(-c2ccccc2)cc1=O",
    "class_name": "inactive"
  },
  {
    "compound": "COc1cccc(-c2cc(=O)c3cc(C)c(C)c(C(=O)O)c3o2)c1",
    "class_name": "inactive"
  },
  {
    "compound": "Cc1nc2ccc(Cl)cc2c2c1CCN2c1ccccc1",
    "class_name": "inactive"
  }
]

Write down the call the test reported for this compound. Item: Fc1ccc2c3c([nH]c2c1)CCN(Cc1ccccc1)C3
inactive

====

system: UACC-257; assay: NCI tumour cell line growth inhibition, 48 h
Calls of active or inactive are those of the source. Cut-off read from the data, not from the text of the source: active = GI50 up to about 1.1 µM and inactive = higher.
Recorded GI50, one value per entry.

Consider the reported GI50 for these compounds:
[
  {
    "compound": "Cc1ccc2[nH]c3c(c2c1)C1CCC(C(C)(C)C)CC1C1C(=O)N(c2ccc4c(c2)OCO4)C(=O)C31 (configuration not stated)",
    "GI50": "9.68 µM (inactive)"
  },
  {
    "compound": "CCOC(=O)/C=C/CCC(C)(C)COC(C)=O",
    "GI50": "> 10 µM (inactive)"
  },
  {
    "compound": "COC(=O)C(CC12CC3CC(CC(C3)C1)C2)NC(=O)C(N)CC(=O)O (configuration not stated)",
    "GI50": "> 100 µM (inactive)"
  },
  {
    "compound": "CC1=CC(=O)C[C@]2(C)[C@@H](O)CC(C(C)CO)C[C@@H]12 (some centres not stated)",
    "GI50": "> 100 µM (inactive)"
  },
  {
    "compound": "CC1=NN(c2nc(N)nc(NS(=O)(=O)c3cc(C)c(Cl)cc3S)n2)C(C)(C)C1",
    "GI50": "> 10 µM (inactive)"
  },
  {
    "compound": "COC1=CC2C(c3cc4ccccc4n3S(=O)(=O)c3ccccc3)CC1CN2C(=O)OCc1ccccc1 (configuration not stated)",
    "GI50": "34.8 µM (inactive)"
  },
  {
    "compound": "COc1ccc(-c2cc(O)c3c(C)cc(C)nc3n2)cc1",
    "GI50": "25.9 µM (inactive)"
  },
  {
    "compound": "O=C1CNc2cc(N3CCN(c4ccccc4)CC3)ccc2N1",
    "GI50": "> 100 µM (inactive)"
  }
]

Value wanted: GI50 (UACC-257) of entry Cc1ccc(C(=O)Nc2ccc(S(=O)(=O)O)c3cc(S(=O)(=O)O)cc(S(=O)(=O)O)c23)cc1NC(=O)c1cccc(NC(=O)Nc2cccc(C(=O)Nc3cc(C(=O)Nc4ccc(S(=O)(=O)O)c5cc(S(=O)(=O)O)cc(S(=O)(=O)O)c45)ccc3C)c2)c1
> 100 µM (inactive)

# value lookup — system UACC-257, readout GI50, item C=CCn1cc(C(=O)NC(=O)NCCCCCOC(=O)CCCCCCCCCCC(=O)OCCCCCNC(=O)NC(=O)c2cn(CC=C)c(=O)n(C)c2=O)c(=O)n(C)c1=O
> 100 µM (inactive)

Form field - read-out: GI50; system: UACC-257; submitted item: Cc1cc(Cl)ccc1Nc1nc2c(s1)C(=O)c1ccccc1C2=O
2.53 µM (inactive)

Lab request: please report GI50 under test system UACC-257 for O=C(Nc1nc2ccc([N+](=O)[O-])cc2[n+]([O-])n1)C(F)(F)F
16.9 µM (inactive)

Kindly state the measured GI50 obtained for Oc1c(Cl)c(Cl)c(O)c(CCNc2nccs2)c1Cl with UACC-257.
20 µM (inactive)

Return GI50 measured with UACC-257 given this compound: O=[N+]([O-])c1cc(Cl)ccc1Sc1ccccc1
> 100 µM (inactive)

So what GI50 did O=C1CC(Cl)c2c(Cl)sc(Cl)c21 (configuration not stated) get with UACC-257?
2.96 µM (inactive)

Hi! What's the reported GI50 for COC(=O)C1(c2cc3ccccc3n2S(=O)(=O)c2ccccc2)CC2C=CC1NC2 (configuration not stated) on UACC-257?
2.22 µM (inactive)

Query the reported GI50 for UACC-257; item: CC(C)=CCCC1(Sc2ccccc2)C(=O)OCC1C=C(C)C (configuration not stated)
17.5 µM (inactive)

====

test system: SK-MEL-5; test: NCI tumour cell line growth inhibition, 48 h
Calls of active or inactive are those of the source. Rule as the data show it: active = GI50 up to about 1.1 µM and inactive = higher.
endpoint_name: GI50

Worked examples follow.
[
  {
    "compound": "CC[C@H](C)C(=O)O[C@H]1C[C@@H](C)C=C2C=C[C@H](C)[C@H](CC[C@@H]3C[C@@H](O)CC(=O)O3)[C@H]21",
    "endpoint_name": "GI50",
    "result": "6.7 µM (inactive)"
  },
  {
    "compound": "CC1=NN(c2nc(N)nc(NS(=O)(=O)c3cc(C)c(Cl)cc3S)n2)C(C)(C)C1",
    "endpoint_name": "GI50",
    "result": "> 10 µM (inactive)"
  }
]

Look up GI50: O=[N+]([O-])C(C(Cl)=C(Cl)Cl)=C(N1CCOCC1)N1CCOCC1
> 100 µM (inactive)

====

tested on: LXFL 529; experiment: NCI tumour cell line growth inhibition, 48 h
Activity calls are given as the source filed them. Rule as the data show it: active = GI50 up to about 1.1 µM and inactive = higher.
Output constraint: value belongs to t (active), f (inactive)

Please review the entries below; each comes with its answer.
[
  {
    "compound": "O=C(N/C(=C\\c1cccc([N+](=O)[O-])c1)c1nc2cc([N+](=O)[O-])ccc2[nH]1)c1ccccc1",
    "class_name": "f"
  },
  {
    "compound": "O=C1NC2C(=O)N(Cc3ccccc3)C(=O)C2N1 (centres undefined)",
    "class_name": "f"
  },
  {
    "compound": "O=S(=O)(NCn1ccc2ccccc21)c1ccccc1",
    "class_name": "f"
  },
  {
    "compound": "Cc1c(N2CCN(C)CC2)nc2ccc(Cl)cc2c1-c1ccccc1",
    "class_name": "f"
  },
  {
    "compound": "O=C(/C=C(\\O)C(=O)O)/C=C(\\O)c1ccccc1Cl",
    "class_name": "f"
  }
]

Could you check what this test reported for O=[N+]([O-])/C=C/c1ccc(Cl)cc1Cl ?
f

Tell me the assay call for COC(=O)C1=C(c2ccc(OC)c(OC)c2)OC(c2ccc(OC)c(OC)c2)C1 (centres undefined) please.
f

Which outcome was entered for the compound COC(=O)c1ccccc1/N=C/c1ccc(N(CCC#N)S(=O)(=O)c2ccccc2)cc1 in this test?
f

I'd appreciate the recorded outcome for CNS(=O)(=O)NNS(=O)(=O)c1ccc2ccccc2c1 from this test.
f

Please share the test call associated with O=C1[C@@H]2C3SC(c4ccccc43)[C@@H]2C(=O)N1c1ccccc1 .
f
